- protocol-description: Cytotoxicity in rat C6 cells assessed as cell viability at 20 uM incubated for 24 hrs by MTT assay relative to untreated control
- Type: cell-based
- assay-conditions: read-out: Activity
endpoint-label: viability at 24 h, 20 µM (%)
Numeric answer only, unit % assumed.

# viability at 24 h, 20 µM of C=C(C)[C@@H]1CC[C@]2(C(=O)O)CC[C@]3(C)[C@H](CC[C@@H]4[C@@]5(C)CC[C@H](O)C(C)(C)[C@@H]5CC[C@]43C)[C@@H]12 = 77.3

# viability at 24 h, 20 µM of CCCCC/C=C/C(=O)CCc1ccc(O)c(OC)c1 = 126

# viability at 24 h, 20 µM of C[C@@H]1CC[C@]2(C(=O)O)CC[C@]3(C)C(=CC[C@@H]4[C@@]5(C)C[C@@H](O)[C@H](O)C(C)(C)[C@@H]5CC[C@]43C)[C@@H]2[C@]1(C)O = 100

# viability at 24 h, 20 µM of C=C(C)[C@@H]1CC[C@]2(C(=O)O)CC[C@]3(C)[C@H](CC[C@@H]4[C@@]5(C)CC[C@H](OC(=O)/C=C/c6ccc(O)c(O)c6)C(C)(C)[C@@H]5CC[C@]43C)[C@@H]12 = 95

----------
- System: A549
- protocol-description: Cytotoxicity against human A549 cells assessed as inhibition of cell growth by SRB assay
- Assay type: functional, cell-based
endpoint-label: IC50

# IC50 of C=C(C)[C@@H]1CC[C@]2(CO)CC[C@]3(C)[C@H](CC[C@@H]4[C@@]5(C)CC[C@H](OC(=O)/C=C\c6ccc(O)c(O)c6)C(C)(C)[C@@H]5CC[C@]43C)[C@@H]12 = > 10 µM

# IC50 of C=C(C)[C@@H]1CC[C@]2(CO)CC[C@]3(C)[C@H](CC[C@@H]4[C@@]5(C)CC[C@H](OC(=O)/C=C/c6ccc(O)c(O)c6)C(C)(C)[C@@H]5CC[C@]43C)[C@@H]12 = > 10 µM

# IC50 of C=C(C)[C@@H]1CC[C@]2(CO)CC[C@]3(C)[C@H](CC[C@@H]4[C@@]5(C)CC[C@H](O)[C@](C)(CO)[C@@H]5CC[C@]43C)[C@@H]12 = 5.1 µM
